system: RAW-Dual (murine macrophage reporter line); assay: NF-kB reporter (SEAP) activity fold change vs agonist alone; higher = enhanced NF-kB activity; conditions: modulator concentration 10 µM; agonist: LPS 0.1 ug/mL
measure-name: NF-kB reporter
Just the number.

Record O=C(Oc1ccc(C=Nc2ccc([N+](=O)[O-])cc2)cc1)c1ccccc1 . Reported NF-kB reporter: 0.967

The recorded NF-kB reporter for entry O=S(=O)(c1ccc(F)cc1)n1cccc1 equals 0.746

CC1CC(C)CN(S(=O)(=O)CCCOc2ccc3c(c2)OCO3)C1 (configuration not stated) yielded NF-kB reporter of 1.04

The recorded NF-kB reporter for COC1(C)CCC2OC2(C)CCC2C1CC2(C)C (configuration not stated) is 1.06

# molecule O=C(CSc1nc[nH]n1)NC(c1ccccc1)c1ccccc1 ; its NF-kB reporter = 0.86

Entry Br.CCCCn1c(=N)n(CC(=O)OC)c2ccccc21 ; NF-kB reporter = 0.957

Noted for CCOc1nc2cccc(C(=O)O)c2n1Cc1ccc(-c2ccccc2-c2nnn[nH]2)cc1 : its NF-kB reporter reads 1.16

NF-kB reporter measured on N#Cc1cc2c(nc1N1CC(Cn3nc(C4CC4)ccc3=O)C1)CCC2 = 1.21

***
Record summary for O=C(O[C@@H]1C[C@@H]2C[C@@H]3C[C@H](C1)N2CC3=O)c1c[nH]c2ccccc12 : reported NF-kB reporter = 0.718

Please fill in: NF-kB reporter reported for COc1ccccc1OCCOCCOc1cccc(Br)c1 = 1.05

Kindly note the recorded NF-kB reporter for CCCC(=O)Nc1ccc(OCC(O)CNC(C)C)c(C(C)=O)c1.Cl (configuration not stated) , which is 1.03

Cc1ccc(C)c(NC(=O)CCN2CCN(C=O)CC2)c1 yielded NF-kB reporter of 0.905

// recorded NF-kB reporter for Cc1cc2nc(SCc3cc4c(cc3Cl)OCO4)[nH]c2cc1C : 0.976

Quick note, NF-kB reporter for CCC(=O)CC(O)(c1ccccc1)C(F)(F)F (configuration not stated) landed at 0.955

Entry O=C(Cc1ccccc1)NC(NC(=S)Nc1ccc(O)cc1)C(Cl)(Cl)Cl (configuration not stated) ; NF-kB reporter = 0.818

In plain terms, COc1ccc(C(=O)Nc2cc(C)nc3c(C)cc(C)cc23)cc1OC has a documented NF-kB reporter of 0.948

// CC1CCN(c2ccc(-c3ccc(NC(=O)c4ccc5ncsc5c4)cc3)nn2)CC1 : NF-kB reporter value = 0.98

The molecule listed as CC[C@@]1(O)C(=O)OCc2c1cc1n(c2=O)Cc2cc3c(CN(C)C)c(O)ccc3nc2-1.Cl has a reported NF-kB reporter of 1.41

Lab note: measured NF-kB reporter of CC(=O)N1CCC(C(=O)NC(Cn2nccn2)c2ccccc2)CC1 (configuration not stated) was 1.06

// sample Cc1cccc(C(=O)NC(Nc2ccccc2C(F)(F)F)C(Cl)(Cl)Cl)c1 (configuration not stated) , its NF-kB reporter was 1.05

The value of NF-kB reporter measured for the molecule COc1ccc(CC(=O)N2CCC(N3CCC(OC)CC3)CC2)cc1OC turned out to be 1.09

// field: NF-kB reporter; key: CN1CCN(CCCN2c3ccccc3Sc3ccc(Cl)cc32)CC1.O=C(O)/C=C\C(=O)O.O=C(O)/C=C\C(=O)O ; value = 1.14
